B1: HDV Ribozyme (parent)
chain: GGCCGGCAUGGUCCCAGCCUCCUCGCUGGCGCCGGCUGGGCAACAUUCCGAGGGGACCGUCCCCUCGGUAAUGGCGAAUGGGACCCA

- Variants of: B1
- Test protocol: self-cleavage, relative activity (ratio to wild type); higher = more cleavage; co-transcriptional
Observed property: self-cleavage

Mutation key | Quantitative readout
G6C A87U | 0.282
C33U G34U | 0.219
C18G G73U | 0.119
A8U C21A | 0
G82C C86U | 0.285
A71C G80C | 0.302
A78U C84A | 0.185
G17U G81C | 0.197
G6U G10U | 0.0791
C13A C57A | 0.185
G53A G81C | 0.266
G1A G38U | 0.0845
U46C A70G | 1.03
C3A C26A | 0.795
U9G C62U | 0.731
C22A C33U | 0.191
G31A G34A | 0.0934
U79A C86G | 0.81
U37A A70G | 0.214
U9C A45U | 0.554
G67C G74C | 0.123
C61U G73A | 0.547
A8C U37C | 0.997
U20C C33G | 0
U72G G80C | 0.26
C24A G81C | 0.17
G55C U65C | 0.867
G53U G67U | 0.715
G38U G52C | 0.169
G1C U37A | 0
C26U C85G | 1.22
C49U G80U | 0.219
U23A C24U | 0.199
C7U G11U | 0.16
C18A A45C | 0.208
C13G A51C | 0.0723
C41G G80U | 0.124
C4G G82A | 0.0674
